Please respond with reported max % larvae for every item in the list.
Test system: Danio rerio embryo/larva
assay explanation: max % larvae with abnormal position across tested concentrations; higher = more toxic; extreme values may be limits of the assay
settings: exposure: 6-8 hpf to 5 dpf, scored at 6 dpf
Answers are plain numbers, in %.

>>> value_reported("O=C(O)C(F)(F)C(F)(F)C(F)(F)C(F)(F)C(F)(F)C(F)(F)C(F)(F)C(F)(F)C(F)(F)C(F)(F)F [Perfluoroundecanoic acid] (max tested concentration (log10 uM): 0.477121)")
8.33
>>> value_reported("FC(F)(F)C(F)(F)C(F)(F)C(F)(F)C(F)(F)C(F)(F)CCS [2-(Perfluorohexyl)ethanethiol] (max tested concentration (log10 uM): 1.60206)")
0
>>> value_reported("O=C(Cl)C(F)(F)C(F)(F)C(F)(F)C(F)(F)C(F)(F)C(F)(F)F [Perfluoroheptanoyl chloride] (max tested concentration (log10 uM): 2)")
4.17
>>> value_reported("NC(=O)C(F)(F)C(F)(F)C(F)(F)C(F)F [Perfluoropentanamide] (max tested concentration (log10 uM): 2)")
0

Lookup: Record request: max % larvae value, item O=C(O)C(F)(F)C(F)(F)C(F)(F)OC(F)(C(F)(F)F)C(F)(F)F [Perfluoro-4-isopropoxybutanoic acid] (max tested concentration (log10 uM): 2)
Found: 0

----------
Tested on: Danio rerio embryo/larva
assay explanation: max % larvae with any abnormality across tested concentrations; max tested concentration (log10 uM): 2; higher = more toxic; extreme values may be limits of the assay
settings: exposure: 6-8 hpf to 5 dpf, scored at 6 dpf
property measured: max % larvae (%)
One number for each entry, in %.

>>> value_reported("O=C(O)C(F)(F)OC(F)(F)C(F)(F)OC(F)(F)C(=O)O")
0
>>> value_reported("O=S(=O)(O)C(F)(F)C(F)(F)C(F)(F)C(F)(F)C(F)(F)C(F)(F)C(F)(F)C(F)(F)F [Perfluorooctanesulfonic acid]")
100
>>> value_reported("FC(F)(F)C(F)(F)C(F)(F)C(F)(F)C(F)(F)CCI")
72.9
>>> value_reported("NC(=O)C(F)(F)C(F)(F)C(F)(F)F [Heptafluorobutyramide]")
25
>>> value_reported("OCCCC(F)(F)C(F)(F)C(F)(F)C(F)(F)C(F)(F)C(F)(F)C(F)(F)F")
45.8

For every listed record, write down its max % larvae.
1. O=S(=O)(OCC(F)(F)F)C(F)(F)C(F)(F)C(F)(F)C(F)(F)F [2,2,2-Trifluoroethyl perfluorobutanesulfonate]
2. O=S(=O)(O)CCC(F)(F)C(F)(F)C(F)(F)C(F)(F)C(F)(F)C(F)(F)C(F)(F)C(F)(F)F
3. O=C(O)C(F)(F)C(F)(F)C(F)(F)OC(F)(F)F
4. O=C(O)C(F)(F)C(F)(F)C(F)(F)C(F)(F)C(F)(F)C(F)(F)C(F)(F)C(F)(F)C(F)(F)F
5. CNS(=O)(=O)C(F)(F)C(F)(F)C(F)(F)C(F)(F)C(F)(F)C(F)(F)C(F)(F)C(F)(F)F [N-Methylperfluorooctanesulfonamide]
6. OCCC(F)(F)C(F)(F)C(F)(F)C(F)(F)F
7. O=P(O)(O)OCCC(F)(F)C(F)(F)C(F)(F)C(F)(F)C(F)(F)C(F)(F)F [6:2 Fluorotelomer phosphate monoester]

Found:
[95.5, 0, 0, 100, 95.8, 4.17, 0]

Hi, could you look up max % larvae for each item in my list?
1. O=C(Cl)C(F)(F)C(F)(F)C(F)(F)C(F)(F)C(F)(F)C(F)(F)F [Perfluoroheptanoyl chloride]
2. O=C(O)C(F)(F)C(F)(F)C(F)(F)C(F)(F)C(F)(F)C(F)(F)C(F)(F)C(F)(F)C(F)(F)C(F)F
3. O=S(=O)(O)C(F)(F)C(F)(F)C(F)(F)C(F)(F)F [Potassium perfluorobutanesulfonate]

Found:
1. 16.7
2. 100
3. 8.33
